tested on: MS2 coat protein; experiment: apparent KD of MS2 coat protein; higher = weaker reporter binding; conditions: Eterna round: R107; input ligand: tryptophan 2.4 mM
Response field class: enum, chosen by comparing apparent KD of MS2 coat protein against one: < 20 nM; two: ≥ 20 nM and < 60 nM; three: ≥ 60 nM

Assign a bin to UCGAUGGUAUCUGAUACCAGUAGCGUGCGUUACAUGAGGAUCACCCAUGUGCCUAUACUUUACCCUUGGCAGCAGUGGAUUCGAU [theeternabot_sameState_MS2_Theo_B_22]
three

Which bin, given its apparent KD of MS2 coat protein, does AGAUAACAUGGUUUAAUAAGAUAAACUGAUACCAGUGUAUAUAAUCACCCUUGGCAGCAGCAACAUGAGGAUCACCCAUGUAAUA [JR_SSTheophyA_Sub014] occupy?
two

// return the class label for AGAUGUAGCGGAAGGAGCGUCAUGAGGAUCACCCAUGACUCCCGUUGUGGGAGUUCCUUAGGUCAGGUAGGUCGCCGUUACGUCA [Omei Arg B SS B v5]
three

====

system: MS2 coat protein; assay: apparent KD of MS2 coat protein; designed switch direction (-1 OFF switch, 1 ON switch): 1; higher = weaker reporter binding; conditions: Eterna round: R95; input ligand: microRNA oligo, concentration not stated
Please go through the items and note down their apparent KD of MS2 coat protein.
Numbers only, in nM.

Recorded results for 10 sequences are shown here.
AACGUGGGCUAGCAGGAUAUACUGCGAGUAACAUGAGGAUCACCCAUGUUGUCCCGCAAGACAAUGUAGAAGGGCUGAUACCGCG [Atatlaor] (puzzle: Same State 2) :: 28.4
AGCGCGAUCUCGCAGGAUAUCCACAUUCCUACAUGAGGAUCACCCAUGUCGCUGCAGGAUAUUAGGGAGAAGGGUGAUGUCGCGC [Arxeinor] (puzzle: Same State 2) :: 32.6
CGUCCGGCCUGAGCUGGACGGAGGCAUGUACAUGAGGAUCACCCAUGUUCAUGUGCAGGCUUUUUGCUCGUCUUGUG [JL-shm-2.07 JL mod] (puzzle: Sensor for hsa-mir-208a) :: 10.9
AGUCCAGCGAAAGCUGGACAAAAGCAUGUACAUGAGGAUCACCCAUGUUCAUGUAUAAGCUUUUUGCUCGUCUUAAA [JL mod - D95 - 12] (puzzle: Sensor for hsa-mir-208a) :: 9.2
GUAAGUUCGAUGCUCGUCUCUCCGUACAAACAUGAGGAUCACCCAUGUGAUCGGGCAGUAGCCCGAUCAGUAUGGCC [Xearlaxe] (puzzle: Sensor for hsa-mir-208a) :: 22.6
AUAAGGCAAGCUUUUUUCUCGUAGUGUAAACAUGAGGAUCACCCAUGUGCCCACCCUGGAUCUUUGGAUCGCAGAAC [Sobiisarre] (puzzle: Sensor for hsa-mir-208a) :: 15.2
AAAUGUAGGAAACAACAGCAAGAGCAUGUACAUGAGGAUCACCCAUGUCAUGUACAAGCUUUUUGCUGGUCUUAUUA [ak 2 mod of one Eli's designs..] (puzzle: Sensor for hsa-mir-208a) :: 31
GUUCCACAUGAGGAUCACCCAUGUCACGAACACGCAGGAUAUUGCCUGAGUUUGGACAGGUAAGAAGGGUGAGAGA [Dibeante] (puzzle: Same State 1) :: 31.9
AUGGUGCAGGUACAGGAUAUGUUGCUCGUAACAUGAGGAUCACCCAUGUACCUAUGAGAUUAAAUGCAGAAGGGUGCACACCACU [Mat - Same State 2 - Mod of UCT - D89] (puzzle: Same State 2) :: 613
UAGUACAAGCUUUUUGCUUGUCUUAUUUAACAUGAGGAUCACCCAUGUAAGUUGAAAGUUAGAGAGUGCACCUUCAA [JR_SHM208A_Sub052] (puzzle: Sensor for hsa-mir-208a) :: 18.9

Below are some sequences; for each one, tell me its apparent KD of MS2 coat protein.
1. CGGGUACAUGAGGAUCACCCAUGUGGGAGAGAUGCAGGAUAUGUGGGAAAAGGGAAUGUAACAGAAGGGCAAGGAG [JR_SS!_Sub015] (puzzle: Same State 1)
2. AGGUAACAUGAGGAUCACCCAUGUAAGGUGAACGUAGGAUAUCGAAGAGGUAGAGUAGGACGAGAAGGACGAGGAA [JR_SS1_Sub091] (puzzle: Same State 1)
3. AUAAAACAUGAGGAUCACCCAUGUCAACAAAGUCGAGGAUAUGGGCAAAUAAAAUAAGAAUCAGAAGGCGAAUAAU [salish99_ss1_r3_030] (puzzle: Same State 1)

128
239
330

Hi, could you look up apparent KD of MS2 coat protein for each item in my list?
1. GGAGGACAUGAGGAUCACCCAUGUGGAUGAACGCUAGGAUAUGCGUGCAGGAAGAGUGGAGCAGAAGGAGUGGGAU [JR_SS1_Sub047] (puzzle: Same State 1)
2. GGUCCAGCCUGAGCUGGACAAAAGCAUGUACAUGAGGAUCACCCAUGUCGUGUACAAGCUUUUUGCUCGUCUUAAAA [JL mod - D87 - 5] (puzzle: Sensor for hsa-mir-208a)

1: 19.1; 2: 13.9

List the reported apparent KD of MS2 coat protein of each sequence below.
1. AGAUAGUGUGGAAAGGAUAUACUGUUGAGGACAUGAGGAUCACCCAUGUGGUAGAGGAGGUAAGGGUAGAAGGUUCGGGAUUGGU [JR_SS@_Sub019] (puzzle: Same State 2)
2. AGAGAACAUGAGGAUCACCCAUGUAGGAUGGGCAUAGGAUAUAGAGGAAUGAGGGAGGAGCUAGAAGGAUGAUGGA [JR_SS1_Sub078] (puzzle: Same State 1)
3. AGUCCAGCCUGAGCUGGACAAAAGCAUGUACAUGAGGAUCACCCAUGUCAUGUACAAGCUUUUUGCUCGUCAUAAUA [Mat - hsa-mir-208a - Mod of JL - D28] (puzzle: Sensor for hsa-mir-208a)

1. 34.5
2. 192
3. 14.9
